- System: U-251
- Method description: Growth inhibition of human U251 cells after 48 hrs by SRB assay
- Type: functional
- Particulars: U-251, 48 h
Quantity measured: GI50 (µM)
Record the value in µM, omitting the unit from your answer.

These solved cases illustrate the format of a correct answer.
| Compound | Target system | Endpoint result |
| --- | --- | --- |
| c1ccc(C(c2ccc(CCCN3CCNCC3)cc2)C23CC4CC(CC(C4)C2)C3)cc1 (centres undefined) | U-251 | 3.3 |
| CCN1CCN(Cc2ccc(C(c3ccccc3)C34CC5CC(CC(C5)C3)C4)cc2)CC1 (centres undefined) | U-251 | 4.33 |

Need GI50, item c1ccc(C(c2ccc(CCCN3CCCCC3)cc2)C23CC4CC(CC(C4)C2)C3)cc1 (centres undefined)
4.61

Need GI50, item CN1CCN(Cc2ccc(C(c3ccccc3)C34CC5CC(CC(C5)C3)C4)cc2)CC1 (centres undefined)
3.62

* * *

- Test system: HUVEC
- Method description: Growth inhibition of human HUVEC cells after 48 hrs by SRB assay
- Format: cell-based
- Particulars: huvec, 48 h
Let's look at some molecules and their measured TGI.
Record the value in µM, omitting the unit from your answer.

Need TGI, item CCN1CCN(Cc2ccc(C(c3ccccc3)C34CC5CC(CC(C5)C3)C4)cc2)CC1 (stereo unspecified)
5.34

Need TGI, item c1ccc(C(c2ccc(CN3CCCCC3)cc2)C23CC4CC(CC(C4)C2)C3)cc1 (stereo unspecified)
21.7

Need TGI, item CCN1CCN(CCc2ccc(C(c3ccccc3)C34CC5CC(CC(C5)C3)C4)cc2)CC1 (stereo unspecified)
7.36

Need TGI, item c1ccc(C(c2ccc(CN3CCNCC3)cc2)C23CC4CC(CC(C4)C2)C3)cc1 (stereo unspecified)
5.98

Need TGI, item c1ccc(C(c2ccc(CCCN3CCCCC3)cc2)C23CC4CC(CC(C4)C2)C3)cc1 (stereo unspecified)
6.23

Need TGI, item c1ccc(C(c2ccc(CCN3CCCCC3)cc2)C23CC4CC(CC(C4)C2)C3)cc1 (stereo unspecified)
9.33

Need TGI, item CN1CCN(Cc2ccc(C(c3ccccc3)C34CC5CC(CC(C5)C3)C4)cc2)CC1 (stereo unspecified)
7.3

Need TGI, item CN1CCN(CCc2ccc(C(c3ccccc3)C34CC5CC(CC(C5)C3)C4)cc2)CC1 (stereo unspecified)
6.46

* * *

Let's look at some molecules and their measured GI50 at 48 h.
- Method description: Growth inhibition of human HUVEC cells after 48 hrs by SRB assay
- Type: cell-based
- Particulars: HUVEC cells
Record the value in µM, omitting the unit from your answer.

Need GI50 at 48 h, item c1ccc(C(c2ccc(CCCN3CCCCC3)cc2)C23CC4CC(CC(C4)C2)C3)cc1 (configuration not stated)
3.27

Need GI50 at 48 h, item c1ccc(C(c2ccc(CCCN3CCNCC3)cc2)C23CC4CC(CC(C4)C2)C3)cc1 (configuration not stated)
3.97

Need GI50 at 48 h, item CCN1CCN(CCc2ccc(C(c3ccccc3)C34CC5CC(CC(C5)C3)C4)cc2)CC1 (configuration not stated)
5.1

Need GI50 at 48 h, item O=c1[nH]cc(F)c(=O)[nH]1
3.6

Need GI50 at 48 h, item CN1CCN(CCc2ccc(C(c3ccccc3)C34CC5CC(CC(C5)C3)C4)cc2)CC1 (configuration not stated)
3.32

Need GI50 at 48 h, item CCN1CCN(Cc2ccc(C(c3ccccc3)C34CC5CC(CC(C5)C3)C4)cc2)CC1 (configuration not stated)
1.14

Need GI50 at 48 h, item CN1CCN(Cc2ccc(C(c3ccccc3)C34CC5CC(CC(C5)C3)C4)cc2)CC1 (configuration not stated)
4.12

* * *

- Tested on: BXPC-3
- Method description: Growth inhibition of human BxPC3 cells after 48 hrs by SRB assay
- Format: functional
- Particulars: BXPC-3, 48 h
Quantity measured: LC50 (nM)
Record the value in nM, omitting the unit from your answer.

| Compound | Target system | LC50 [nM] |
| --- | --- | --- |
| CN1CCN(CCc2ccc(C(c3ccccc3)C34CC5CC(CC(C5)C3)C4)cc2)CC1 (stereo not drawn) | BXPC-3 | 100 |
| c1ccc(C(c2ccc(CCCN3CCNCC3)cc2)C23CC4CC(CC(C4)C2)C3)cc1 (stereo not drawn) | BXPC-3 | 9.44 |

Next compound, please.
Need LC50, item c1ccc(C(c2ccc(CN3CCNCC3)cc2)C23CC4CC(CC(C4)C2)C3)cc1 (stereo not drawn)
9.51

* * *

- Tested on: HUVEC
- Method description: Growth inhibition of human HUVEC cells after 48 hrs by SRB assay
- Format: cell-based
- Particulars: huvec, 48 h
Quantity measured: LC50
Write the figure, then the unit, nothing else.

These solved cases illustrate the format of a correct answer.
| Compound | LC50 |
| --- | --- |
| CCN1CCN(Cc2ccc(C(c3ccccc3)C34CC5CC(CC(C5)C3)C4)cc2)CC1 (stereo not drawn) | 9.54 µM |
| CN1CCN(Cc2ccc(C(c3ccccc3)C34CC5CC(CC(C5)C3)C4)cc2)CC1 (stereo not drawn) | 100 µM |

Need LC50, item c1ccc(C(c2ccc(CCCN3CCNCC3)cc2)C23CC4CC(CC(C4)C2)C3)cc1 (stereo not drawn)
100 µM

* * *

- Test system: HUVEC
- Method description: Growth inhibition of human HUVEC cells after 48 hrs by SRB assay
- Format: cell-based
- Particulars: huvec, 48 h
Let's look at some molecules and their measured TGI.
Record the value in µM, omitting the unit from your answer.

These solved cases illustrate the format of a correct answer.
| Molecule | Target system | Quantity measured | Unit string | Endpoint result |
| --- | --- | --- | --- | --- |
| c1ccc(C(c2ccc(CCCN3CCNCC3)cc2)C23CC4CC(CC(C4)C2)C3)cc1 (stereo not drawn) | HUVEC | TGI | µM | 7.17 |
| CCN1CCN(CCCc2ccc(C(c3ccccc3)C34CC5CC(CC(C5)C3)C4)cc2)CC1 (stereo not drawn) | HUVEC | TGI | µM | 6.73 |

Next molecule, please.
Need TGI, item CN1CCN(CCCc2ccc(C(c3ccccc3)C34CC5CC(CC(C5)C3)C4)cc2)CC1 (stereo not drawn)
5.8
